tgt: phospho-VEGF R2 (Homo sapiens, UniProt P35968)
Sequence (P35968 20-1356): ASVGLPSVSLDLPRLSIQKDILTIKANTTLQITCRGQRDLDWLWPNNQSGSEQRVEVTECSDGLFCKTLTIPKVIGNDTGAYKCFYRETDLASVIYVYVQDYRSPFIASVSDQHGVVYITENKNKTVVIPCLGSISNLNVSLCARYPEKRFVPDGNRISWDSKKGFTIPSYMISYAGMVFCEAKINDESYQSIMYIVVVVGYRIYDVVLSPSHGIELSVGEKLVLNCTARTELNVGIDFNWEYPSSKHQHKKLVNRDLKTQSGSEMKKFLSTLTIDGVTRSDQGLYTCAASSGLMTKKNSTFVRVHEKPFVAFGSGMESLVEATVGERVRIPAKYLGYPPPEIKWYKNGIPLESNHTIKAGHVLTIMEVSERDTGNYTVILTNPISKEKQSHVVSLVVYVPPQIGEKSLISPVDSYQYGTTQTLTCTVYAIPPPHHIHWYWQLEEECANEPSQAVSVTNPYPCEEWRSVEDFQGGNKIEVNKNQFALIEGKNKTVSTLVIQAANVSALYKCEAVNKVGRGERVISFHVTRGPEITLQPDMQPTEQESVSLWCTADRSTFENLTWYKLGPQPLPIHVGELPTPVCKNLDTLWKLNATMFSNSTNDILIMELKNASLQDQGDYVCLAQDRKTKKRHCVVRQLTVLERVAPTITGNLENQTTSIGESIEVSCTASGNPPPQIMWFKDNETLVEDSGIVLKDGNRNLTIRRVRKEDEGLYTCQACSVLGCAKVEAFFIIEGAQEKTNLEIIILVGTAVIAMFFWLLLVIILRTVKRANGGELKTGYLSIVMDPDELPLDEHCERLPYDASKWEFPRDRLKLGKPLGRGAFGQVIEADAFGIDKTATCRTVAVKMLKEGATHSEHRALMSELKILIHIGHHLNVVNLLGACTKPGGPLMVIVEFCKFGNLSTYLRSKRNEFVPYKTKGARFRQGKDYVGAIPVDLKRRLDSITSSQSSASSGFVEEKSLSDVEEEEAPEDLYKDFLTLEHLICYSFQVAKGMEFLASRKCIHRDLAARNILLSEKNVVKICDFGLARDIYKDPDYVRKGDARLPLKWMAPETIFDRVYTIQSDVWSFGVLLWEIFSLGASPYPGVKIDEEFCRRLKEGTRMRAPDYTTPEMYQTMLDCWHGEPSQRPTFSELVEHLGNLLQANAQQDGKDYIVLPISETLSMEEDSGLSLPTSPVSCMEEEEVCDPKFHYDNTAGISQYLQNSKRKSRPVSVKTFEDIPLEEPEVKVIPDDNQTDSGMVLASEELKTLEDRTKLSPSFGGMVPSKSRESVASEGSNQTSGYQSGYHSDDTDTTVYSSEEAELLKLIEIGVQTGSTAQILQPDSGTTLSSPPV
assay.info: HUVEC VEGF/KDR ELISA (phospho-VEGF R2 after VEGF stimulation)
condition.set: 4 h compound, 100 ng/mL VEGF 5 min, read-out: HUVEC pKDR
pIC50: −log10 of the molar value.
reported.metric: pIC50

• Cn1cc(-c2cc(Oc3ccc(NC(=O)C4(C(=O)Nc5ccc(F)cc5)CC4)c(F)c3)ccn2)cn1 = > 5.70

* * *

tgt: c-KIT kinase (Seq. ID no. 1) (Homo sapiens, UniProt P10721)
Sequence (P10721 with tags, fused parts or gaps): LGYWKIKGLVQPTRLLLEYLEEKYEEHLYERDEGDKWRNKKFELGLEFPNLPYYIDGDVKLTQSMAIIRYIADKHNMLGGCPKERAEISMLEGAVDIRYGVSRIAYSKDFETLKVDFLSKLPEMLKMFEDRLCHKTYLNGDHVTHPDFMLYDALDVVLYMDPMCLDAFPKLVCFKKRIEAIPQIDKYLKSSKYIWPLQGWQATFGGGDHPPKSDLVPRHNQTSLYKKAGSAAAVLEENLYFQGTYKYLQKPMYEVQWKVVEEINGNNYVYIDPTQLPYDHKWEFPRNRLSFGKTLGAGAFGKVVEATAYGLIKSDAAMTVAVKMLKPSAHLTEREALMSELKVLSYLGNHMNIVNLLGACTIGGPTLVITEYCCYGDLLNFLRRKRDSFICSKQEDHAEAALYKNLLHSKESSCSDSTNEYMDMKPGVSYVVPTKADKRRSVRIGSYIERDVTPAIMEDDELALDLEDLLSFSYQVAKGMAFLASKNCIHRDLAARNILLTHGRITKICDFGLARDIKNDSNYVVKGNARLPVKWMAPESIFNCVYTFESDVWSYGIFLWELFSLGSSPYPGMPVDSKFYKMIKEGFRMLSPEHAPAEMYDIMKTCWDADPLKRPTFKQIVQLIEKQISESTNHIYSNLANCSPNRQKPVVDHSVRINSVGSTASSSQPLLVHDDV
assay.info: c-KIT kinase Assay (ADP production, pyruvate kinase/lactate dehydrogenase coupled)
condition.set: read-out: cKIT Enzyme Assay
Recorded IC50 for the following molecules
reported.metric: IC50

- Cn1cc(-c2cc(Oc3cc(F)c(NC(=O)C4(C(=O)Nc5ccc(F)cc5)CC4)cc3Cl)ccn2)cn1: < 200 nM
- Cc1nn(C)cc1-c1cc(Oc2cc(F)c(NC(=O)C3(C(=O)Nc4ccc(F)cc4)CC3)cc2F)ccn1: < 200 nM
- C[C@@H](NC(=O)C1(C(=O)Nc2ccc(Oc3ccnc(-c4cnn(C)c4)c3)c(F)c2)CC1)c1ccccc1: < 2000 nM
- Cc1ccc(NC(=O)C2(C(=O)Nc3ccc(Oc4ccnc(-c5cnn(C)c5)c4)cc3F)CC2)cc1: < 10000 nM
- Cn1cc(-c2cc(Oc3ccc(NC(=O)C4(C(=O)Nc5ccc(F)cc5)CC4)c(F)c3F)ccn2)cn1: < 2000 nM
- CN(C(=O)C1(C(=O)Nc2ccc(F)cc2)CC1)c1ccc(Oc2ccnc(-c3cnn(C)c3)c2)c(F)c1: < 10000 nM
- Cn1cc(-c2cc(Oc3c(F)cc(NC(=O)NC(=O)Cc4ccc(F)cc4)cc3F)ccn2)cn1: < 2000 nM

* * *

tgt: KDR kinase (Seq ID No. 3) (Homo sapiens, UniProt P35968, DEL940-989/E990V)
Sequence (P35968 with tags, fused parts or gaps DEL940-989/E990V): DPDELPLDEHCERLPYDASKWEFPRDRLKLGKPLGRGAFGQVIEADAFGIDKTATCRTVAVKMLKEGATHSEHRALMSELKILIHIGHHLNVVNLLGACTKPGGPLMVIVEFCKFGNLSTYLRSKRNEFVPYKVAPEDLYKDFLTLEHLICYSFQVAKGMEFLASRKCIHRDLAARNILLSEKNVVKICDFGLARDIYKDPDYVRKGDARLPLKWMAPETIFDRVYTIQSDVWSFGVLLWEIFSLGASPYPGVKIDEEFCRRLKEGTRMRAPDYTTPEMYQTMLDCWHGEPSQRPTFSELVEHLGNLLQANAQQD
assay.info: KDR Kinase Assay (assays K1, K2, K3)
condition.set: assay variant K1, K2 or K3 not stated; read-out: KDR Enzyme Assay
pIC50: −log10 of the molar value.
Quick list: pIC50 per entry.
reported.metric: pIC50

* Cc1cc(-c2cc(Oc3ccc(NC(=O)C4(C(=O)Nc5ccc(F)cc5)CC4)c(F)c3)ccn2)on1 | > 5.00
* Cc1c(Oc2ccnc(-c3cnn(C)c3)c2)ccc(NC(=O)C2(C(=O)Nc3ccc(F)cc3)CC2)c1F | > 5.00
* Cc1c(-c2cc(Oc3cc(F)c(NC(=O)C4(C(=O)Nc5ccc(F)cc5)CC4)cc3F)ccn2)cnn1C | > 6.70
* Cn1cc(-c2cc(Oc3cc(F)c(NC(=O)NC(=O)Cc4ccc(F)cc4)cc3Cl)ccn2)cn1 | > 5.70
* Cn1cc(-c2cc(Oc3c(F)cc(NC(=O)NC(=O)Cc4ccc(F)cc4)cc3F)ccn2)cn1 | > 5.70
* Cn1cc(-c2cc(Oc3ccc(NC(=O)C4(C(=O)Nc5ccc(Cl)cc5)CC4)c(F)c3)ccn2)cn1 | > 5.70
* Cc1cc(NC(=O)C2(C(=O)Nc3ccc(F)cc3)CC2)c(F)cc1Oc1ccnc(-c2cnn(C)c2)c1 | > 5.70
* O=C(Nc1ccc(F)cc1)C1(C(=O)Nc2ccc(Oc3ccnc(-c4cnn(CCO)c4)c3)c(F)c2)CC1 | > 5.70
* Cn1cc(-c2cc(Oc3ccc(NC(=O)C4(C(=O)Nc5ccc(F)cc5)CC4)cn3)ccn2)cn1 | > 5.00
